test system: PSMA-positive 22rv1 tumor-bearing mouse; experiment: 177Lu labeling and animal biodistribution experiment, gamma counter; type: in vivo; details: 177Lu-labeled compound, 24 h after tail vein injection, n = 2
Catalogue of Blood uptake readings, one per entry.
State just the number; it will be interpreted in % ID/g.

{"columns": ["compound", "readout", "test-result"],
 "data": [
  ["O=C(O)CC[C@H](NC(=O)NC(CCCCNC(=O)[C@H](Cc1ccc2ccccc2c1)NC(=O)[C@H]1CC[C@H](NC(=O)CCC(=O)NCC(=O)N2CN(C(=O)CNC(=O)CCC(=O)N[C@H]3CC[C@H](C(=O)N[C@@H](Cc4ccc5ccccc5c4)C(=O)NCCCC[C@H](NC(=O)N[C@@H](CCC(=O)O)C(=O)O)C(=O)O)CC3)CN(C(=O)CNC(=O)CN3CCN(CC(=O)O)CCN(CC(=O)O)CCN(CC(=O)O)CC3)C2)CC1)C(=O)O)C(=O)O (some centres unmarked)", "Blood uptake", 0.025]
]}

Next item in the queue.
The compound identified as O=C(O)CC[C@H](NC(=O)NC(CCCCNC(=O)[C@H](Cc1ccc2ccccc2c1)NC(=O)[C@H]1CC[C@H](NC(=O)CCC(=O)NCCCC[C@H](NC(=O)CCC(=O)N[C@H]2CC[C@H](C(=O)N[C@@H](Cc3ccc4ccccc4c3)C(=O)NCCCC[C@H](NC(=O)N[C@@H](CCC(=O)O)C(=O)O)C(=O)O)CC2)C(=O)NCCNC(=O)CN2CCN(CC(=O)O)CCN(CC(=O)O)CCN(CC(=O)O)CC2)CC1)C(=O)O)C(=O)O (some centres unmarked) registered its Blood uptake at 0.03

---

test system: PSMA-positive 22rv1 tumor-bearing mouse; experiment: 177Lu labeling and animal biodistribution experiment, gamma counter; type: in vivo; conditions: 177Lu-labeled compound, 24 h after tail vein injection, n = 2
Catalogue of Kidney uptake readings, one per entry.
State just the number; it will be interpreted in % ID/g.

{"columns": ["molecule", "test-result"],
 "data": [
  ["O=C(O)CC[C@H](NC(=O)NC(CCCCNC(=O)[C@H](Cc1ccc2ccccc2c1)NC(=O)c1ccc(C2CCN(C(=O)CCC(=O)NCCCC[C@H](NC(=O)CCC(=O)N3CCC(c4ccc(C(=O)N[C@@H](Cc5ccc6ccccc6c5)C(=O)NCCCC[C@H](NC(=O)N[C@@H](CCC(=O)O)C(=O)O)C(=O)O)cc4)CC3)C(=O)NCCNC(=O)CN3CCN(CC(=O)O)CCN(CC(=O)O)CCN(CC(=O)O)CC3)CC2)cc1)C(=O)O)C(=O)O (stereo partly drawn) [DB-20]", 74.455]
]}

The molecule identified as O=C(O)CC[C@H](NC(=O)NC(CCCCNC(=O)[C@H](Cc1ccc2ccccc2c1)NC(=O)c1ccc2c(c1)CCN(C(=O)CNC(=O)c1cc(NC(=O)CNC(=O)CN3CCN(CC(=O)O)CCN(CC(=O)O)CCN(CC(=O)O)CC3)cc(C(=O)NCC(=O)N3CCc4cc(C(=O)N[C@@H](Cc5ccc6ccccc6c5)C(=O)NCCCC[C@H](NC(=O)N[C@@H](CCC(=O)O)C(=O)O)C(=O)O)ccc4C3)c1)C2)C(=O)O)C(=O)O (stereo partly drawn) [DB-19] registered its Kidney uptake at 177.885

The molecule identified as O=C(O)CC[C@H](NC(=O)NC(CCCCNC(=O)[C@H](Cc1ccc2ccccc2c1)NC(=O)c1ccc(C2CCN(C(=O)CNC(=O)c3cc(NC(=O)COCCOCCNC(=O)CN4CCN(CC(=O)O)CCN(CC(=O)O)CCN(CC(=O)O)CC4)cc(C(=O)NCC(=O)N4CCC(c5ccc(C(=O)N[C@@H](Cc6ccc7ccccc7c6)C(=O)NCCCC[C@H](NC(=O)N[C@@H](CCC(=O)O)C(=O)O)C(=O)O)cc5)CC4)c3)CC2)cc1)C(=O)O)C(=O)O (stereo partly drawn) [DB-21] registered its Kidney uptake at 150.54
